assay_info: Chemical stability of compound in PBS buffer at pH 7.4 assessed as parent compound remaining measured after 60 mins by UHPLC analysis
Assay type: physicochemical
settings: read-out: Stability
Below, each of the compounds is paired with its reported remaining at 1 h value.
Write it as a number; the unit % goes unstated.

Previously resolved entries follow.
CC(C)(C)OOC(=O)OCc1cc(=O)oc2cc(O)c(Br)cc12: 45
CC(C)(C)OOC(=O)OCc1cc(=O)oc2c3c(c(Br)cc12)NCCC3: 50

Lab note: next compound to report on.
Form field: reported remaining at 1 h of CC(C)(C)OOC(=O)OCc1cc(=O)oc2c3c(c(Br)cc12)NCC3 68

* * *

assay_info: Photophysical property of the compound assessed as fluorescence quantum yield by UV-Visible spectrophotometric analysis
Type: physicochemical
observation_type: Activity
Give only the figure.

CC(C)(C)OOC(=O)OCc1cc(=O)oc2cc(O)c(Br)cc12: 0.13
CC(C)(C)OOC(=O)OCc1cc(=O)oc2c3c(c(Br)cc12)NCCC3: 0.082
CC(C)(C)OOC(=O)OCc1cc(=O)oc2c3c(c(Br)cc12)NCC3: 0.14

Now for a further molecule.
So what's the measured Activity for this one? CC(=O)OC(=O)OCc1cc(=O)oc2cc(O)c(Br)cc12 0.04
